# assay_target: T1, cynomolgus monkey BCMA (cynomolgus monkey, UniProt A0A2K5UD97 1-53)
# T1 construct: Soluble analyte in SPR; construct not described; also called cyBCMA; Cyno BCMA
# T1 sequence (A0A2K5UD97 entry or part of it): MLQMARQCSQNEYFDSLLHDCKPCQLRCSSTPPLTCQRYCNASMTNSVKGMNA
# measurement_description: SPR, IgG on chip, cyBCMA analyte, 37C
recorded_endpoint: koff (s⁻¹)
Note: unit s⁻¹ is implicit; provide only the numeric part.

q: Given L3.PY/L1.FF/H3.AQ (antibody, V domains shown, IgG) VH: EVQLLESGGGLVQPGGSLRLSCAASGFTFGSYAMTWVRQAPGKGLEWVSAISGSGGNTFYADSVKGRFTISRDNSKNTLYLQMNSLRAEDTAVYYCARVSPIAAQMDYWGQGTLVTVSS VL: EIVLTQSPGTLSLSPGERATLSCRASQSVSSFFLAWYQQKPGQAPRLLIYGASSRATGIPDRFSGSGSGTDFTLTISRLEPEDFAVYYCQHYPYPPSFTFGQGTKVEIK , state its recorded koff.
a: 0.00329

q: Given L3.PY/L3.KY/H2.YQ (antibody, V domains shown, IgG) VH: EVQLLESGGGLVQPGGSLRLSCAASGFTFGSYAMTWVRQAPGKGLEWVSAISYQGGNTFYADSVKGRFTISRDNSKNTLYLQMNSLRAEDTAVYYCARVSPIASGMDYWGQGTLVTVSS VL: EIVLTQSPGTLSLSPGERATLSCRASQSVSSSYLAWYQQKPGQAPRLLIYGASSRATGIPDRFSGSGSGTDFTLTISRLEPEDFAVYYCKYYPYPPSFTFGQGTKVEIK , state its recorded koff.
a: 0.00258
